- measuredTarget: human mAChR M4 (Homo sapiens)
- Sequence (P08173 whole entry): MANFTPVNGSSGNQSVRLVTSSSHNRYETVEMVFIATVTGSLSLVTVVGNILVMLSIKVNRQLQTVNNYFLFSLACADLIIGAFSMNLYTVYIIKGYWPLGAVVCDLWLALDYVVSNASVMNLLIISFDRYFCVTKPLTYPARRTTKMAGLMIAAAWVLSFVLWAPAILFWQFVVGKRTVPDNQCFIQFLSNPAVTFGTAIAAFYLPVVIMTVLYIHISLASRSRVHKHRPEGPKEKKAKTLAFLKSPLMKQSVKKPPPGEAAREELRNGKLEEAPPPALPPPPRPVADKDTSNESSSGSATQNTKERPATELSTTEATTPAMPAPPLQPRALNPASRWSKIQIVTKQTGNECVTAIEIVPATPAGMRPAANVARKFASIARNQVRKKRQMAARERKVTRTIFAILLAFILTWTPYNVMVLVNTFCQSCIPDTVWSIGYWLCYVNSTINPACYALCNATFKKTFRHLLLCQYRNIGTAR
- measurementDescription: mAChR M4 cell-based functional assay: calcium mobilization (Fluo-4, FDSS), potentiation of EC20 acetylcholine response in hM4-Gqi5 CHO-K1 cells
- appliedConditions: potentiation of EC20 acetylcholine response, calcium mobilization, human M4
measure: EC50 (nM)

P = Cc1cc(=O)n2nc(N3CCc4ncc(-c5ccncc5)cc4C3)c(C)cc2n1 [Compound 1-240]
Q = Cc1cc(=O)n2nc(N3CCc4ncc(-c5ccc(F)cc5C)cc4C3)c(C)c(C)c2n1 [Compound 1-274]
Of the pair P and Q , name the member with the lesser recorded EC50. Record your answer as the label of the chosen record.
P

P = Cc1cc2nc(C(F)(F)F)cc(=O)n2nc1N1CCc2ncc(N3CCCn4nccc43)cc2C1 [Compound 2-11]
Q = Cc1cc2nccc(=O)n2nc1N1CCc2ncc(-c3cnc(Cl)cc3C(F)F)cc2C1 [Compound 1-329]
Returns the identifier with the smallest measured EC50 among P and Q . Reply briefly: the label of your chosen item.
P
